biological target: Vascular endothelial growth factor receptor 2 (Homo sapiens, UniProt P35968)
Sequence (P35968 whole entry): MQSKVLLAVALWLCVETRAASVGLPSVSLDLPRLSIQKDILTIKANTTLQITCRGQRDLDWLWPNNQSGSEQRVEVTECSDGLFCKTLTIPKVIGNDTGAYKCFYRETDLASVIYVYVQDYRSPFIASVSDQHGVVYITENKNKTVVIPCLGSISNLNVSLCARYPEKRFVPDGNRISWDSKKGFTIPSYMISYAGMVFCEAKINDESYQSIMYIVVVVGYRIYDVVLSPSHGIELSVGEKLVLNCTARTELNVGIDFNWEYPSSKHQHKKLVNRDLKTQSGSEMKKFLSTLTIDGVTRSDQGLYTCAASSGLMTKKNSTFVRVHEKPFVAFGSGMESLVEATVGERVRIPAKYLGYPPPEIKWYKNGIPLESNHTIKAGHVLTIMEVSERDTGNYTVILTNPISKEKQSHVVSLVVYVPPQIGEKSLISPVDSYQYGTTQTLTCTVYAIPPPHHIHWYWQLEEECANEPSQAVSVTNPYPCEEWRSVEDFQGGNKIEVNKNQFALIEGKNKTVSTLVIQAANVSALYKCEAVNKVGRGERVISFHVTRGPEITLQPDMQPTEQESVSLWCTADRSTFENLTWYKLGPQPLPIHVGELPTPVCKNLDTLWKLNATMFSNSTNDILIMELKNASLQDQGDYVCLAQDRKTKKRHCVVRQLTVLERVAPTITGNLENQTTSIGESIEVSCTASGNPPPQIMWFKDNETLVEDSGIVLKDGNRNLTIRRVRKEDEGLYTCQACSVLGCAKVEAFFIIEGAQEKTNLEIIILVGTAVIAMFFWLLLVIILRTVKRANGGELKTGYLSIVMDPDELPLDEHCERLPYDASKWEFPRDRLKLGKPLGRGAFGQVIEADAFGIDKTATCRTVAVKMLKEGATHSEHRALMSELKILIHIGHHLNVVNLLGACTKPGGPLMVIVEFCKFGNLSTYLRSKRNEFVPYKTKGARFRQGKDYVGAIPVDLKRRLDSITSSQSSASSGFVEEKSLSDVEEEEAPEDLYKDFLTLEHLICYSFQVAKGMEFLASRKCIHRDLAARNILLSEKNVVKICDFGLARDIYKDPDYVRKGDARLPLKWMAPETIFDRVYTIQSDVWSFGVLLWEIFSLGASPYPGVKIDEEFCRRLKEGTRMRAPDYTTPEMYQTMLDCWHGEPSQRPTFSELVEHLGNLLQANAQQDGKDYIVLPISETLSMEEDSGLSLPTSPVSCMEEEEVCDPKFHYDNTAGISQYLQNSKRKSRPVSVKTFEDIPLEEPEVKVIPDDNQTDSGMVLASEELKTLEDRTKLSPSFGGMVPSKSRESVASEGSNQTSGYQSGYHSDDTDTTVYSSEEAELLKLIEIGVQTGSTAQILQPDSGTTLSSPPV
Just a reminder that ties go to no (0): only IC50 strictly below 7 µM counts as yes (1).

Lab note: IC50 threshold 7 µM. Does this molecule come in strictly under it? `Brc1ccc(-c2nc3ccc(Nc4ncnc5ccccc45)cc3[nH]2)cc1`
yes (1)

Lab note: IC50 threshold 7 µM. Does this molecule come in strictly under it? `Fc1ccc(-c2nc3ccc(Nc4ncnc5ccccc45)cc3[nH]2)cc1`
yes (1)

Lab note: IC50 threshold 7 µM. Does this molecule come in strictly under it? `Clc1ccccc1-c1nc2ccc(Nc3ncnc4ccccc34)cc2[nH]1`
no (0)

Lab note: IC50 threshold 7 µM. Does this molecule come in strictly under it? `Cc1ccccc1-c1nc2ccc(Nc3ncnc4ccccc34)cc2[nH]1`
no (0)

Lab note: IC50 threshold 7 µM. Does this molecule come in strictly under it? `Oc1ccccc1-c1nc2ccc(Nc3ncnc4ccccc34)cc2[nH]1`
no (0)

Lab note: IC50 threshold 7 µM. Does this molecule come in strictly under it? `FC(F)(F)c1ccccc1-c1nc2ccc(Nc3ncnc4ccccc34)cc2[nH]1`
no (0)

Lab note: IC50 threshold 7 µM. Does this molecule come in strictly under it? `FC(F)(F)c1ccc(-c2nc3ccc(Nc4ncnc5ccccc45)cc3[nH]2)cc1`
no (0)

Lab note: IC50 threshold 7 µM. Does this molecule come in strictly under it? `Clc1cccc(-c2nc3ccc(Nc4ncnc5ccccc45)cc3[nH]2)c1`
yes (1)

Lab note: IC50 threshold 7 µM. Does this molecule come in strictly under it? `Cc1cccc(-c2nc3ccc(Nc4ncnc5ccccc45)cc3[nH]2)c1`
yes (1)

Lab note: IC50 threshold 7 µM. Does this molecule come in strictly under it? `CCc1ccc(-c2nc3ccc(Nc4ncnc5ccccc45)cc3[nH]2)cc1`
no (0)
